# assaySystem: CSNK1D (Homo sapiens)
# Sequence (P48730 whole entry): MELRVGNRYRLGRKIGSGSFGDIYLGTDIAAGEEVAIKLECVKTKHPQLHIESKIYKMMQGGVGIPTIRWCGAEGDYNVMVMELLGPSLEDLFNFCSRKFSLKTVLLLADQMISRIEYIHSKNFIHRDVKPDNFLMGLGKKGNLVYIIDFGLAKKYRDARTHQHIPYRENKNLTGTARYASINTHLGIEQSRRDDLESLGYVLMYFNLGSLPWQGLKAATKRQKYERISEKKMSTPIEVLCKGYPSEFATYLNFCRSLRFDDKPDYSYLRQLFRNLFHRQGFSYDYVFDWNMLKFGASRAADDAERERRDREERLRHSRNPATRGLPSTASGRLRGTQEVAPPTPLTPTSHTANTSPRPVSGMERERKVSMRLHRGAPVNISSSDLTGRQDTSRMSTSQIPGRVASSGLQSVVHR
# protocol: Kd Elect binding assay (DiscoverX)
testReadout: Kd (nM)
Answers are plain numbers, in nM.

Prompt: Fill in: Kd of CN(C)C(=O)c1ccc(N2CCCN(c3ccnc4sc(C(N)=O)c(N)c34)CC2)cc1 [Compound 15u] is ___
Completion: 860

---

# Tested on: PSA expression in CRPC cell line C4-2
# protocol: PSA expression in cell culture supernatant of C4-2 cells
# Format: cell-based
# conditionContext: 96 h; C4-2 culture supernatant, 4-day treatment, FBS-supplemented regular media
testReadout: IC50 (nM)
One number for each entry, in nM.

Prompt: Lab request: please report IC50 under test system PSA expression in CRPC cell line C4-2 for CN(C)C(=O)c1ccc(N2CCCN(c3ccnc4sc(C(N)=O)c(N)c34)CC2)cc1 [Compound 15u]
Completion: 28

---

# protocol: Solubility of 15u in aqueous solution and vehicles
# conditionContext: aqueous solution, pH 7, water
testReadout: solubility

Prompt: What value of measured solubility is listed for CN(C)C(=O)c1ccc(N2CCCN(c3ccnc4sc(C(N)=O)c(N)c34)CC2)cc1 [Compound 15u] ?
Completion: < 10 µg/mL

---

# protocol: Solubility of 15u in aqueous solution and vehicles
# conditionContext: Liquid formulation 2, organic solvent or mixture
testReadout: solubility

Prompt: What measured solubility goes with CN(C)C(=O)c1ccc(N2CCCN(c3ccnc4sc(C(N)=O)c(N)c34)CC2)cc1 [Compound 15u] ?
Completion: ≤ 20 mg/mL

---

# protocol: Solubility of 15u in aqueous solution and vehicles
# conditionContext: Liquid formulation 1, pH 2.1, aqueous with cosolvent or surfactant or cyclodextrin
testReadout: solubility

Prompt: // returns reported solubility for input CN(C)C(=O)c1ccc(N2CCCN(c3ccnc4sc(C(N)=O)c(N)c34)CC2)cc1 [Compound 15u]
Completion: ~5000 µg/mL

---

# protocol: in vivo
# conditionContext: female, CD-1, mouse, serum, po, 30 mg/kg
testReadout: AUC(0-t) (ng·h/mL)
Numbers only, in ng·h/mL.

Prompt: Entry [2H]C([2H])([2H])N(C(=O)c1ccc(N2CCCN(c3ccnc4sc(C(N)=O)c(N)c34)CC2)cc1)C([2H])([2H])[2H] : reported AUC(0-t) = ?
Completion: 7400

---

# assaySystem: UniProtKB P49674
# Sequence (P49674 whole entry): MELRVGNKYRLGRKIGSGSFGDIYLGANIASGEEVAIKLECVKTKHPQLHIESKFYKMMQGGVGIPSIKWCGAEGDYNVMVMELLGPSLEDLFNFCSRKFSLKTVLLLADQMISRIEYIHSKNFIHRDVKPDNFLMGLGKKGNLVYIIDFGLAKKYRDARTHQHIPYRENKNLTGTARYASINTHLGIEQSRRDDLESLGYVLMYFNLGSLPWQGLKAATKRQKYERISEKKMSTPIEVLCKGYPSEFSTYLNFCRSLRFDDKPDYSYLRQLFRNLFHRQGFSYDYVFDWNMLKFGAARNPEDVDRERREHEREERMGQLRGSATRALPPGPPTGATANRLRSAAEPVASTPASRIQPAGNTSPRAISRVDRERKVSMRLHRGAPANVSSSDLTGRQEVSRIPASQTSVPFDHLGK
testReadout: pKd
Give bare numbers, as −log10 of the molar value.

Prompt: Fill in the blank: the reported pKd of CN(C)C(=O)c1ccc(N2CCCN(c3ccnc4sc(C(N)=O)c(N)c34)CC2)cc1 [Compound 15u] is ____.
Completion: 6.55
